tested on: K-562 leukemia; experiment: NCI tumour cell line growth inhibition, 48 h; in the data active means GI50 below about 0.43 µM; inactive means the rest
Answer with one of the outcomes given here: YES for active, NO for inactive

# outcome recorded in this test, key = CC(C)C(=O)c1c(C(F)(F)F)n([O-])c2ccccc2[n+]1=O
NO

Hi, sorry to bother you, what did the test record for Cn1cc(C2=C(c3cn(CCCCCO)c4ccccc34)C(=O)NC2=O)c2ccccc21 ?
NO

Which outcome did this test record for the compound COc1ccc(-c2[nH]nc(N)c2-c2cc(OC)c(OC)c(OC)c2)cc1 ?
YES

# fetch the recorded call for Cc1[nH]nc2ncc(C(=O)N3CCC[C@H]3c3ccc(Cl)cc3)cc12 here
NO

# outcome recorded in this test, key = O=C1c2cc(F)ccc2-c2c1c1ccc([N+](=O)[O-])cc1c(=O)n2CCCBr
NO

What classification did NC(=O)c1cc(Br)ccc1NC(=O)/C=C/c1ccccc1 end up with in this test?
NO

Hey, what did the test say about COc1ccc(-c2cn(-c3cc(OC)c(OC)c(OC)c3)c(=O)[nH]2)cc1OC ?
NO
